Organism: Rattus norvegicus
protocol: Antispasmodic activity calculated as ability of compound to block ACh-induced contractions of the ileum and expressed as pA2
Type: functional, organism-based
assay conditions: Rattus norvegicus, Ileum; read-out: pA2 (converted)
measurement type: Kb

{"compound": "CCN(CC)CCOC(=O)C(C)(CBr)c1ccccc1.Cl (centres undefined)", "Kb": "126 nM"}
{"compound": "CCN(CC)CCOC(=O)C(C)(CF)c1ccccc1.Cl (centres undefined)", "Kb": "302 nM"}
{"compound": "CCN(CC)CCOC(=O)C(C)(CI)c1ccccc1.Cl (centres undefined)", "Kb": "38.9 nM"}

# evaluate next
// CCN(CC)CCOC(=O)C(C)(CCl)c1ccccc1.Cl (centres undefined) : Kb value = 550 nM
